Tested on: DLD-1
Assay: NCI tumour cell line growth inhibition, 48 h
Calls of active or inactive are those of the source. No stated cut-off is given here; in the data, active = GI50 up to about 1.1 µM and inactive = higher.
Outcomes: YES for active, NO for inactive

{"compound": "OC1(C(Sc2ccccc2)Sc2ccccc2)CCCCCC1", "target-entity": "DLD-1", "class-label": "NO"}
{"compound": "CCCN(CCCC(NC(C)=O)C(=O)NCc1ccccc1)C(=O)N(CCCl)N=O (stereo unspecified)", "target-entity": "DLD-1", "class-label": "NO"}
{"compound": "C=CCN1/C(=C2\\SC(=S)N(c3ccc(C)cc3)C2=O)Sc2c1ncn(C)c2=O", "target-entity": "DLD-1", "class-label": "NO"}
{"compound": "O=C1C(c2ccc(C3=[N+]([O-])c4cc([N+](=O)[O-])ccc4C3=O)cc2)=[N+]([O-])c2cc([N+](=O)[O-])ccc21", "target-entity": "DLD-1", "class-label": "NO"}
{"compound": "NC(=O)c1c([N+](=O)[O-])cc(C(F)(F)F)cc1[N+](=O)[O-]", "target-entity": "DLD-1", "class-label": "NO"}
{"compound": "CCNC(=O)O/N=C1\\CCC2[C@@H]3CC=C4C[C@@H](OC(=O)NCC)CC[C@]4(C)C3CC[C@]12C (stereo partly specified)", "target-entity": "DLD-1", "class-label": "NO"}
{"compound": "COC(COC(N)=O)C1=C(N2CC2)C(=O)C(C)=C(N2CC2)C1=O (stereo unspecified)", "target-entity": "DLD-1", "class-label": "YES"}
{"compound": "O=c1[nH]c2ccccc2cc1C(Cl)=C(Cl)Cl", "target-entity": "DLD-1", "class-label": "NO"}
{"compound": "C/C(=N/N(C=O)C[n+]1ccccc1)C(CN(CC(C)C)CC(C)C)C(=O)Nc1ccc(C)cc1C (stereo unspecified)", "target-entity": "DLD-1", "class-label": "NO"}
{"compound": "CCCCCCN(CCCCCC)C(=S)N/N=C(\\C)c1ccccn1", "target-entity": "DLD-1", "class-label": "NO"}
{"compound": "CC(Oc1ccc(OCC2CCCCC2)cc1)C(=O)O (stereo unspecified)", "target-entity": "DLD-1", "class-label": "NO"}
{"compound": "CCOC(=O)Cc1nc(/C(C#N)=C/c2ccco2)[nH]c(=O)c1C#N", "target-entity": "DLD-1", "class-label": "NO"}
{"compound": "CCOC(=O)NC/C=C/CO", "target-entity": "DLD-1", "class-label": "NO"}
{"compound": "Cc1cc(N(CCC#N)CCC#N)ccc1/C=C(\\NC(=O)/C=C/c1ccccc1)NC(=O)Nc1ccc(Cl)cc1", "target-entity": "DLD-1", "class-label": "NO"}
{"compound": "O=C1c2cccc([N+](=O)[O-])c2C(=O)c2nccnc21", "target-entity": "DLD-1", "class-label": "NO"}
{"compound": "COC(=O)[C@@H]1C[C@H](c2ccc(OC)c(OC)c2)OC1=O.COC(=O)[C@H]1C[C@H](c2ccc(OC)c(OC)c2)OC1=O", "target-entity": "DLD-1", "class-label": "NO"}
{"compound": "COC(=O)C(C(=O)C(=O)Nc1ccccc1C(C)=O)c1nc2ccc(Cl)cc2nc1O (stereo unspecified)", "target-entity": "DLD-1", "class-label": "NO"}
{"compound": "CN(C)C(=S)/N=c1\\ssc(=S)n1Cc1ccccn1", "target-entity": "DLD-1", "class-label": "NO"}
{"compound": "COc1ccc(C2C(N)=NCC2c2ccccn2)cc1 (stereo unspecified)", "target-entity": "DLD-1", "class-label": "NO"}
{"compound": "CC1=[N+]([O-])c2ccccc2C(=O)C1=O", "target-entity": "DLD-1", "class-label": "NO"}
{"compound": "CCCOc1ccc(/C=C\\c2cc(OC)c(OC)c(OC)c2)cc1", "target-entity": "DLD-1", "class-label": "NO"}
